Test system: OATP2B1 H618Q/H579Q double mutant, low affinity site
Experiment: Substrate activity at human OATP2B1 H618Q/H579Q double mutant low affinity site expressed in Xenopus laevis oocytes assessed as Km for transporter-mediated drug accumulation after 15 mins by Eadie-Hofstee plot method
Format: ADME, cell-based
measure_name: Km at 0.25 h (µM)
Numeric only. Scale: µM

The recorded Km at 0.25 h for entry `C[C@]12CC[C@@H]3c4ccc(OS(=O)(=O)O)cc4CC[C@H]3[C@@H]1CCC2=O` equals 312
